# Test system: HCT-116 colon
# ASSAY INFO: NCI tumour cell line growth inhibition, 48 h
Kindly state TGI for each of the entries shown.

Input line: // Input: `ONc1ncnc2nc[nH]c12` . Output its TGI only.
Output line: > 100 µM

Input line: // Input: `Cc1ccc(N=Cc2ccc3c(c2)OCO3)cc1C` . Output its TGI only.
Output line: > 100 µM

Input line: // Input: `COc1ccc2nc(-n3c(/C=C/c4ccccc4O)nc4ccccc4c3=O)sc2c1` . Output its TGI only.
Output line: 65.3 µM

Input line: // Input: `CC1(C)C(=NNC(=O)C[N+](C)(C)C)C(C)(C)C1=NNC(=O)C[N+](C)(C)C` . Output its TGI only.
Output line: > 100 µM

Input line: // Input: `Cc1cccc2nc3c(C(=O)NCCN(C)C)cccc3cc12` . Output its TGI only.
Output line: 6.21 µM

Input line: // Input: COCCN(C(C)=O)C1CCC2(SCCS2)c2[nH]c3ccccc3c21 (stereo unspecified) . Output its TGI only.
Output line: > 100 µM

* * *

# Test system: BT-549 breast
# ASSAY INFO: NCI tumour cell line growth inhibition, 48 h; in the data active means GI50 below about 0.43 µM; inactive means the rest
API: response.call in true for active, false for inactive

Input line: What did this assay record as the result for `COc1ccc(-c2c3c(N)nc(-c4ccncc4)nc3nc3c2c(C)nn3-c2ccccc2)cc1` ?
Output line: false

Input line: What did this assay record as the result for `Oc1cccc2ccc(N/N=C/c3cc(CN4CCCCC4)c(O)c4ncccc34)nc12` ?
Output line: true

Input line: What did this assay record as the result for `COc1ccc(-c2nc3sc4c(c3c(=O)[nH]2)CCCCCC4)cc1` ?
Output line: false

Input line: What did this assay record as the result for CCCC(C)c1cc(Cc2cc(Cl)cc(Cl)c2O)c(O)c(Cc2cc(Cl)cc(Cl)c2O)c1 (stereo not given) ?
Output line: false

Input line: What did this assay record as the result for `O=C(O)/C=C\C(=O)N1C/C(=C\c2ccccc2Cl)C(=O)/C(=C/c2ccccc2Cl)C1` ?
Output line: false

Input line: What did this assay record as the result for `COc1cccc(-n2ncc3c(N/N=C/c4ccc(C(=O)NCCN(C)C)cc4)ncnc32)c1` ?
Output line: false

Input line: What did this assay record as the result for `CN1CCC(n2cnc(-c3ccc(F)cc3)c2-c2ccnc(NCCO)n2)CC1` ?
Output line: false

Input line: What did this assay record as the result for `Nc1ccccc1C#C/C=C\C#Cc1cccs1` ?
Output line: false

Input line: What did this assay record as the result for `O=C1c2cccnc2C(=O)c2nc3cc(N4CCN(C5CC5)CC4)ccc3nc21` ?
Output line: false

Input line: What did this assay record as the result for `COc1ccc2sc3c(NCCCN(C)C)nc4ccccc4c3c(=O)c2c1` ?
Output line: false

* * *

# Test system: NCI-H460 lung
# ASSAY INFO: NCI tumour cell line growth inhibition, 48 h
Kindly state TGI for each of the entries shown.

Input line: // Input: `NC(=O)N=C(N(Cc1ccccc1)Cc1ccccc1)N(Cc1ccccc1)Cc1ccccc1` . Output its TGI only.
Output line: > 100 µM

Input line: // Input: CCOC(=O)C1=[N+]([O-])OC2=C(O)CCCC21 (configuration not stated) . Output its TGI only.
Output line: > 100 µM

Input line: // Input: `N#Cc1c(N2CCCC2)[nH]c(=O)c(C(c2c(Cl)cccc2Cl)c2c(O)c(C#N)c(N3CCCC3)[nH]c2=O)c1O` . Output its TGI only.
Output line: 38.4 µM

Input line: // Input: `O=C(CSc1nnc(-c2ccc(N=Cc3ccc(Cl)cc3)cc2)o1)Nc1ccc(Cl)cc1Cl` . Output its TGI only.
Output line: > 100 µM

Input line: // Input: CC(NNC(=O)c1ccncc1)c1ccc(F)cc1 (configuration not stated) . Output its TGI only.
Output line: > 100 µM

Input line: // Input: COC(=O)c1ccccc1CC1Cc2ccc3c(c2C1=O)CCC3 (configuration not stated) . Output its TGI only.
Output line: > 100 µM

Input line: // Input: O=C(C1OC1c1ccc(O)cc1)C12CC3CC(CC(C3)C1)C2 (configuration not stated) . Output its TGI only.
Output line: > 100 µM

Input line: // Input: `O=C(CCCN1CCC2(CC1)OC(=O)N(c1ccccc1)C2=O)c1ccccc1` . Output its TGI only.
Output line: > 100 µM

Input line: // Input: `NCCOCCOCCNc1nc(Cc2ccccc2)nc(NCCCN2CCCC2=O)n1` . Output its TGI only.
Output line: > 100 µM

Input line: // Input: `Cn1c(=O)c2c(nc(-n3nc(-c4ccc(Cl)cc4)cc3N)n2C)n(C)c1=O` . Output its TGI only.
Output line: > 100 µM

Input line: // Input: CC(=O)N1C(Nc2ccccn2)CCN1c1ccccc1 (configuration not stated) . Output its TGI only.
Output line: > 10 µM

Input line: // Input: `COc1ccc2c(c1)cn1c3ccc(O)cc3nc(N)c21` . Output its TGI only.
Output line: 14.7 µM

Input line: // Input: `O=C(COc1ccc2c(=O)cc(-c3ccccc3)oc2c1)N1CCN(c2ccccc2)CC1` . Output its TGI only.
Output line: > 100 µM

Input line: // Input: COC(O)C(=O)c1c2c(cc3c1CC1(Cc4cc5c(cc4C1)CCC5)C3)CCC2 (configuration not stated) . Output its TGI only.
Output line: 42.7 µM

Input line: // Input: `CCOC(=O)c1c(N2CCCC2)nsc1Nc1ccc(F)cc1` . Output its TGI only.
Output line: > 100 µM

Input line: // Input: COC(C(=O)[O][Ge]([CH3])([CH3])[CH3])c1ccccc1 (configuration not stated) . Output its TGI only.
Output line: > 100 µM

Input line: // Input: `O=C1C(Cl)=C(OCCCCl)C(=O)c2c(O)ccc(O)c21` . Output its TGI only.
Output line: 27.2 µM

Input line: // Input: `CCN(CC)c1ccc(C(=O)c2ccccc2C(=O)O)c(O)c1` . Output its TGI only.
Output line: > 100 µM

Input line: // Input: `Cc1ccc(C2=Nc3cccc4cccc(c34)N2)cc1` . Output its TGI only.
Output line: > 100 µM

Input line: // Input: Nc1nc2c(c3ncncc13)C(c1cccc(C(F)(F)F)c1)Cc1ncncc1-2 (configuration not stated) . Output its TGI only.
Output line: > 100 µM

Input line: // Input: `COc1cc(OC(C)=O)cc2c(OC(C)=O)ccc(OC(C)=O)c12` . Output its TGI only.
Output line: > 100 µM

Input line: // Input: CN(C)C(=O)OC(Cn1cncn1)c1ccc(Cl)cc1Cl (configuration not stated) . Output its TGI only.
Output line: > 100 µM

* * *

# Test system: SK-OV-3 ovarian
# ASSAY INFO: NCI tumour cell line growth inhibition, 48 h; in the data active = GI50 below about 0.43 µM; inactive = the rest
API: response.call in true (1) (active), false (0) (inactive)

Input line: What did this assay record as the result for COC(C(=O)[O][Ge]([CH3])([CH3])[CH3])c1ccccc1 (centres undefined) ?
Output line: false (0)

Input line: What did this assay record as the result for `Oc1cccc2ccc(N/N=C/c3cc(CN4CCCCC4)c(O)c4ncccc34)nc12` ?
Output line: true (1)

Input line: What did this assay record as the result for `O=C(CCCCCCC(=O)Nc1ccc(N(CCCl)CCCl)cc1)NO` ?
Output line: false (0)

Input line: What did this assay record as the result for `C1C[OH+]CC[OH+]CCNCC[OH+]CC[OH+]CCN1.N.[Cl-].[Pt+4]` ?
Output line: false (0)

Input line: What did this assay record as the result for `COc1ccc(-c2n/c(=C\c3c(O)[nH]c4ccc(OC)cc34)cc3c2=Nc2ccccc2-3)cc1` ?
Output line: false (0)

Input line: What did this assay record as the result for `O=C(NCCO)Nc1ccc(-c2nc(N3CCOCC3)c3cccn3n2)cc1` ?
Output line: true (1)

Input line: What did this assay record as the result for `CCOC(=O)c1cc(NS(=O)(=O)c2ccccc2)cc(C(=O)OCC)c1` ?
Output line: false (0)

Input line: What did this assay record as the result for `COc1ccc(/C(=C2/O[C@@H]([C@H]3COC(C)(C)O3)[C@H]3OC(C)(C)O[C@@H]23)c2cc(OC)c(OC)c(OC)c2)cc1O` ?
Output line: false (0)

Input line: What did this assay record as the result for CCCCC(CC)CN=C(N)NC(N)=NCCCCCCN=C(N)NC(N)=NCC(CC)CCCC (centres undefined) ?
Output line: false (0)

* * *

# Test system: NCI-H522 lung
# ASSAY INFO: NCI tumour cell line growth inhibition, 48 h; in the data active = GI50 below about 0.43 µM; inactive = the rest
API: response.call in true = active, false = inactive

Input line: What did this assay record as the result for COc1cc(C2CC(c3ccc4c(c3)OCO4)=NN2C=O)cc(OC)c1OC (stereo not drawn) ?
Output line: false

Input line: What did this assay record as the result for CC[C@@H](C(=O)O)C1CC[C@H](C)C([C@@H](C)[C@H](O)[C@H](C)C(=O)[C@H](CC)C2O[C@]3(C=C[C@@H](O)[C@]4(CC[C@@](C)(C5CC[C@](O)(CC)[C@H](C)O5)O4)O3)[C@H](C)C[C@@H]2C)O1 (stereo partly drawn) ?
Output line: true

Input line: What did this assay record as the result for `COc1cccc2c1c(C(=O)C(=O)Nc1cc(C)no1)cn2Cc1ccc(F)cc1` ?
Output line: false

Input line: What did this assay record as the result for `N=C(N)c1ccc(-c2ccc(-c3cc(Cl)cc(Cl)c3)o2)nc1` ?
Output line: false

Input line: What did this assay record as the result for OC(c1cc(-c2ccccc2)nc2ccc(Cl)cc12)C1CCCCN1 (stereo not drawn) ?
Output line: false

Input line: What did this assay record as the result for `CC#C[C@]1(O)CC[C@H]2[C@@H]3CCC4=CC(=O)CCC4=C3[C@@H](c3ccc4c(c3)OCO4)C[C@@]21C` ?
Output line: false

Input line: What did this assay record as the result for `COc1ccc(-c2csc(N(C(=O)N3CCN(c4cc5c(cc4F)c(=O)c(C(=O)O)cn5C4CC4)CC3)c3ccccc3)n2)cc1` ?
Output line: false

Input line: What did this assay record as the result for COC(C(=O)[O][Ge]([CH3])([CH3])[CH3])c1ccccc1 (stereo not drawn) ?
Output line: false
